Tested on: A549-TP53BP1-CLTA
experimentSummary: phenotypically active (imaging signature differs from DMSO and reproducible) at any of 0.3-9 uM (binary (1 = active, 0 = inactive)); higher = active
measurementConditions: treatment time: 24 h
Where a name gives a salt, the structure may show the parent alone.
recordedEndpoint: phenotypically active

Exercise: For C=C1C(=O)O[C@@H]2[C@H]3O[C@]3(C)CCC=C(C)CC[C@@H]12 [Parthenolide] , what is its reported phenotypically active?
Key: 0 (inactive)

Exercise: For N#Cc1c(NC(=O)c2cccc3ccccc23)sc2c1CCCC2 , what is its reported phenotypically active?
Key: 1 (active)

Exercise: For COc1c2c(cc3oc(CO)cc(=O)c13)O[C@@H](C(C)(C)O)C2 , what is its reported phenotypically active?
Key: 0 (inactive)

Exercise: For OCc1ccccc1O[C@@H]1O[C@H](CO)[C@@H](O)[C@H](O)[C@H]1O , what is its reported phenotypically active?
Key: 0 (inactive)

Exercise: For CN1c2ccc([N+](=O)[O-])cc2N=C(c2ccc(C(=O)O)cc2)c2cc3c(cc21)C(C)(C)CCC3(C)C , what is its reported phenotypically active?
Key: 0 (inactive)

Exercise: For CC(C)(C)c1ccc2cc(C#N)c(C#N)cc2c1 , what is its reported phenotypically active?
Key: 0 (inactive)

Exercise: For O=C(CCc1ccc(O)cc1)c1c(O)cc(O)cc1O[C@@H]1O[C@H](CO)[C@@H](O)[C@H](O)[C@H]1O , what is its reported phenotypically active?
Key: 0 (inactive)

Exercise: For COc1cc2c(cc1O)CC[C@@H]1[C@@H]2CC[C@]2(C)[C@@H](O)CC[C@@H]12 , what is its reported phenotypically active?
Key: 1 (active)

Exercise: For Cc1cccc(CN2CCN(C(c3ccccc3)c3ccc(Cl)cc3)CC2)c1 (stereo unspecified) [Meclizine dihydrochloride] , what is its reported phenotypically active?
Key: 0 (inactive)

Exercise: For CNCC[C@@H](Oc1ccccc1C)c1ccccc1 , what is its reported phenotypically active?
Key: 0 (inactive)

Exercise: For NC(=O)c1ccc(N(C(N)=O)c2c(F)cccc2F)nc1-c1ccc(F)cc1F , what is its reported phenotypically active?
Key: 0 (inactive)

Exercise: For Cc1ccc([N+](=O)[O-])cc1S(=O)(=O)N(C)/N=C/c1cnc2ccc(Br)cn12 , what is its reported phenotypically active?
Key: 1 (active)

Exercise: For O=C(O)C(CO)c1ccccc1 (stereo unspecified) , what is its reported phenotypically active?
Key: 0 (inactive)

Exercise: For COC(=O)/C=C/c1cccc(N(Cc2ccc(-c3ccc(N(C)C)cc3)cc2)C(=O)C2CCCCC2)c1 , what is its reported phenotypically active?
Key: 0 (inactive)

Exercise: For NS(=O)(=O)c1cc2c(cc1Cl)N=C(CSCc1ccccc1)NS2(=O)=O [benzthiazide] , what is its reported phenotypically active?
Key: 0 (inactive)

Exercise: For O=C(Nc1ccccc1)N1CCC(Cc2cnc3ccccc3c2)CC1 , what is its reported phenotypically active?
Key: 0 (inactive)

Exercise: For CCCCC(=O)O[C@H]1CC[C@H]2[C@@H]3CCc4cc(O)ccc4[C@H]3CC[C@]12C [estradiol valerate] , what is its reported phenotypically active?
Key: 0 (inactive)

Exercise: For O=C1NC(=O)[C@@H](c2cn3c4c(cccc24)CCC3)[C@@H]1c1c[nH]c2ccccc12 [tivantinib] , what is its reported phenotypically active?
Key: 1 (active)

Exercise: For CC(C)(C)c1cc(NC(=O)Nc2ccc(-c3cn4c(n3)sc3cc(OCCN5CCOCC5)ccc34)cc2)no1 , what is its reported phenotypically active?
Key: 1 (active)

Exercise: For CN(C)c1nc(N(C)C)nc(N(C)C)n1 , what is its reported phenotypically active?
Key: 0 (inactive)

Exercise: For COc1ccc(-n2c(SCCCN3C(=O)c4cccc5cccc(c45)C3=O)nnc2-c2ccncc2)cc1 , what is its reported phenotypically active?
Key: 0 (inactive)

Exercise: For CC(COc1ccccc1)N(CCCl)Cc1ccccc1 (stereo unspecified) , what is its reported phenotypically active?
Key: 0 (inactive)

Exercise: For O=c1c(O)c(-c2ccc(O)cc2)oc2cc(O)cc(O)c12 , what is its reported phenotypically active?
Key: 0 (inactive)

Exercise: For Nc1ncnc2c1c(-c1ccc(Oc3ccccc3)cc1)nn2C1CCCC1 , what is its reported phenotypically active?
Key: 0 (inactive)

Exercise: For N#C/C(=C/c1ccc(O)c(O)c1)C(=O)NCCCCc1ccccc1 , what is its reported phenotypically active?
Key: 0 (inactive)

Exercise: For COc1cc([C@@H]2c3cc4c(cc3[C@@H](O[C@@H]3O[C@@H]5CO[C@@H](c6cccs6)O[C@H]5[C@H](O)[C@H]3O)[C@H]3COC(=O)[C@H]23)OCO4)cc(OC)c1O [teniposide] , what is its reported phenotypically active?
Key: 1 (active)

From: the supplement of paper PMC7411054
